test system: MS2 coat protein; test: apparent Kd, MS2 coat protein; higher = weaker binding; RNA-MaP array; FMN 200 µM where present; conditions: designed as: OFF switch for flavin mononucleotide; no ligand

[
  {
    "sequenceEntry": "GUAUAUAGUGUGAGGAUAUGCUGGUCCUUGGAUCAGCAGAAGGCACAUGAGGAUCACCCAUGUAGUUUAUUUUA",
    "apparent Kd (nM)": 30.6
  },
  {
    "sequenceEntry": "GUCAGCUCGUGAGGAUAUACAACACUGCUUCGGCAGUGUAUUAAGAUGACAUGAGGAUCACCCAUGUAGAAGGCACGAGCUGAU",
    "apparent Kd (nM)": 5.78
  },
  {
    "sequenceEntry": "CAUUAAUUCAUUAUAGUAAUUAUACAGGAUAUGUAACAUGAGGAUCACCCAUGUAUUCUUGGUAAACAGAAGGGUAUUACAAGU",
    "apparent Kd (nM)": 13.7
  },
  {
    "sequenceEntry": "UUUCCCUGGCAAGGAUAUCCUGUGCGGUUCCGGCUCGUGUCUGUUACAUGAGGAUCACCCAUGUGGGAGAAGGUGCCUGUGGCU",
    "apparent Kd (nM)": 53.2
  }
]

----------
# apparent Kd annotations
tested on: MS2 coat protein; assay: apparent Kd, MS2 coat protein; higher = weaker binding; RNA-MaP array; FMN 200 µM where present; details: ligand present: flavin mononucleotide; designed as: OFF switch for flavin mononucleotide
propertyLabel: apparent Kd (nM)

[
  {
    "sequenceEntry": "CUUCAGUCAGGAUAUCUGCACGCUGGUGAGACCGGACGGAAGGAGAAGGGACAUGAGGAUCACCCAUGUAAAGC",
    "propertyLabel": "apparent Kd",
    "unitInfo": "nM",
    "recordedNumber": 17.5
  },
  {
    "sequenceEntry": "GACAUCGCAGGAUAUUAGGGUUUGUACAUGAGGAUCACCCAUGUUAAUUGGGUUAAUGUCUAAGAAGGGCGGUGUC",
    "propertyLabel": "apparent Kd",
    "unitInfo": "nM",
    "recordedNumber": 240
  },
  {
    "sequenceEntry": "CUUCUGUAAGGAUAUGUAUGCUCCUGGUAUGUCGCGAGGAGACAGAAGGUACAUGAGGAUCACCCAUGUGGGCG",
    "propertyLabel": "apparent Kd",
    "unitInfo": "nM",
    "recordedNumber": 304
  },
  {
    "sequenceEntry": "UAUUAAUGCAAGGAUAUGCUUUUAAUUUUUUUUGCAGAAGGUGCAACAUGAGGAUCACCCAUGUUUCCGGGUAU",
    "propertyLabel": "apparent Kd",
    "unitInfo": "nM",
    "recordedNumber": 39.1
  },
  {
    "sequenceEntry": "AAUUUGGUCGUAGGAUAUCGGAAGCGGUGCGAACGAGAAGGGCGACAUGAGGAUCACCCAUGUAGCCACGAAGGCGAUCCUUGG",
    "propertyLabel": "apparent Kd",
    "unitInfo": "nM",
    "recordedNumber": 16.3
  },
  {
    "sequenceEntry": "CUCGGACAUGAGGAUCACCCAUGUGAGGAUAUGAUGCGAUCGUCGAAAGACGAUAGCAUCAGAAGGUACAAAUG",
    "propertyLabel": "apparent Kd",
    "unitInfo": "nM",
    "recordedNumber": 42.9
  },
  {
    "sequenceEntry": "AAAUUUAACGAAGGAUAUGGAUACAUGAGGAUCACCCAUGUUUAUUUUGUGAUCUUGUAUAAGUACCAGAAGGUCGUAUACAUA",
    "propertyLabel": "apparent Kd",
    "unitInfo": "nM",
    "recordedNumber": 459
  }
]
